- System: SN12C renal
- experimental details: NCI-60 one-dose screen, 48 h (100 = growth as untreated, 0 = no growth, -100 = all killed)
- assay setup: 10 µM unless noted
Compounds without any hit were thinned out: in the full panel of roughly 83,000, 20% have a hit.
Field: class. Source value: growth. Ranges: Low (below 80%), Mid (80% to below 90%), High (90% or more)

Please review the entries below; each comes with its answer.
{"cpd smiles": "N=C(N)c1ccc(-c2ccc(-c3ccccc3)s2)cc1", "group label": "Low"}
{"cpd smiles": "COc1cc(/C=C/C(=O)/C=C(O)/C=C/c2ccc(OC(=O)C34CC5CC(CC(C5)C3)C4)c(OC)c2)ccc1OC(=O)C12CC3CC(CC(C3)C1)C2", "group label": "High"}
{"cpd smiles": "Cn1cc(-c2ccc(-c3cn(C)c4ccc(Cl)cc34)[nH]2)c2cc(Cl)ccc21", "group label": "Low"}
{"cpd smiles": "Cc1ccc(N2C(=O)CCC2=O)cc1", "group label": "High"}

Exam item: State the band of `Cc1ccc(CNc2ccc3nc(CCC(C)C)[nH]c3c2)cc1`
Marked response: Mid

Exam item: State the band of `COc1ccc2cc(-c3ccnc4c(N=Nc5ccc(Cl)cc5)c(N)nn34)ccc2c1`
Marked response: High

Exam item: State the band of `Cc1c(Cl)cccc1C(=O)Nc1nc2c(s1)CN(C(=O)c1ccc(C(F)(F)F)cc1)CC2`
Marked response: Low

Exam item: State the band of `c1nc2ccc(-c3cc4ccc5[nH]ncc5c4c4c3CCCC4)cc2[nH]1`
Marked response: Low

Exam item: State the band of `N=C(N)c1ccc(-c2ccc(-c3cc(Cl)cc(Cl)c3)s2)nc1`
Marked response: Mid
